ASSAY_TARGET: T1, human DLL4, full length, on cells (human, UniProt Q9NR61 27-685)
T1 construct: also called huDLL4 cells; human DLL4-293G
T1 sequence (Q9NR61 27-685 limits assumed): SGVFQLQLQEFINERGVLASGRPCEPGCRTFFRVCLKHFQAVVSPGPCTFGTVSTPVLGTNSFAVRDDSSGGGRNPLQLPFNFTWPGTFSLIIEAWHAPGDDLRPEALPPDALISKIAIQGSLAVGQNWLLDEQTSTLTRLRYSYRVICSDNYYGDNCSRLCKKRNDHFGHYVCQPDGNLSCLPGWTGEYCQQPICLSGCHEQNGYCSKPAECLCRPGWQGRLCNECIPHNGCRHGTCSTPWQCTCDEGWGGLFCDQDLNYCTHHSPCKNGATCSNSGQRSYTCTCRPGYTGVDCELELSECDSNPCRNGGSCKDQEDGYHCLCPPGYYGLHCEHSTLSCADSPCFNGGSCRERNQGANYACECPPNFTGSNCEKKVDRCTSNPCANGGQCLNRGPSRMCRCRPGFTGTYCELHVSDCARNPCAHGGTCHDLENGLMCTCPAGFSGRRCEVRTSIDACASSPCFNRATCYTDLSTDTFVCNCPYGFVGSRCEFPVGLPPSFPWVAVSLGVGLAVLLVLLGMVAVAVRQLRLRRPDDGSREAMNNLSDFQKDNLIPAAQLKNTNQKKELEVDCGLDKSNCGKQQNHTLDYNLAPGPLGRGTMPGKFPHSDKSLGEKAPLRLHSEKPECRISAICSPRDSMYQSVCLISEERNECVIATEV
PROTOCOL_DETAILS: FACS, DLL4 cells
PARAMETER_MEASURED: EC50 (nM)
One number for each entry, in nM.

[[record]]
binder = "h1A11.7 (antibody, V domains shown, humanized IgG; also called VH.1a/VL.1b 1A11) VH: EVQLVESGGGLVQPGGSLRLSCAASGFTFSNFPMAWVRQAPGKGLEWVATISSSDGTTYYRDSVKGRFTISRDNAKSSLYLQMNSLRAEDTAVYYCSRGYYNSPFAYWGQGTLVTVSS VL: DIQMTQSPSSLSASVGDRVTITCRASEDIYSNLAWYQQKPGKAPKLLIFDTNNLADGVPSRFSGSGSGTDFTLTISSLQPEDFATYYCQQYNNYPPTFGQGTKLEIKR"
test_value = 3.71

[[record]]
binder = "h1A11.1 (antibody, V domains shown, humanized IgG; also called hu1A11.1; VH.1/VL.1 1A11) VH: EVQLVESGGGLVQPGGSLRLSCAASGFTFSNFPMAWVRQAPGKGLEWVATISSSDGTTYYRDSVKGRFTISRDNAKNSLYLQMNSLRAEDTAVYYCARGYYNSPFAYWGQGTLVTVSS VL: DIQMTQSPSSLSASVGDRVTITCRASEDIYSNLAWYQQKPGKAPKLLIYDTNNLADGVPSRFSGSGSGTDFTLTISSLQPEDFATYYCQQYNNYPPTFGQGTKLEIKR"
test_value = 3.13


Please give EC50 for each item listed below.
1. 1A11 chimeric antibody (antibody, human IgG1, V domains shown, also called Chimera of 1A11; 1A11 (chimera)) VH: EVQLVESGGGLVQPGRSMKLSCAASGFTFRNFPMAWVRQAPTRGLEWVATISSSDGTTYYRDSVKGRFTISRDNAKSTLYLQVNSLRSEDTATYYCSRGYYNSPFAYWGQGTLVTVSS VL: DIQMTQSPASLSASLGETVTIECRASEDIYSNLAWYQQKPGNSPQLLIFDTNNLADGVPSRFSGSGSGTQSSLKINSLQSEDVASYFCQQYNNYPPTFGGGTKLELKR
2. h1A11.3 (antibody, V domains shown, humanized IgG; also called VH.1/VL.1b 1A11) VH: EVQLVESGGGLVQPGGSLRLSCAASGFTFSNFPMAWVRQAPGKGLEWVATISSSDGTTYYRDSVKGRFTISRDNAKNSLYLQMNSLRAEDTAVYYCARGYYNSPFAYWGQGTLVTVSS VL: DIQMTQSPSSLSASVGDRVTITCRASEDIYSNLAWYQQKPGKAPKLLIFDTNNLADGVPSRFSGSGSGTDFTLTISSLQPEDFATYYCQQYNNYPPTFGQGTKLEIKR

1: 6.29; 2: 3.51

Data credit: patent US20110217237A1
